System: MCF7 breast
experimentNotes: NCI-60 one-dose screen, 48 h (100 = growth as untreated, 0 = no growth, -100 = all killed)
setupConditions: 10 µM unless noted
This is part of a sample that, as a whole, favours compounds with a hit. Of some 83,000 tested, about 20% had one in any assay.
resultType: growth (%)
One number for each entry, in %.

O=C1CCC2(O)[C@@H]3Cc4ccc(O)c5c4[C@]2(CCN3Cc2ccoc2)C1O5 (some centres undefined) = 97.5
CC1=C(CCCNS(C)(=O)=O)C2=C(C)C3(CC3)[C@@](C)(O)C(=O)C2=C1 = 20.7
O=[N+]([O-])c1cc(I)cc([N+](=O)[O-])c1 = 80.7
Clc1cc(N2CC2)nc(N2CC2)n1 = 34.2
CC(=O)O[C@H]1CC[C@]2(C)[C@H]3CC[C@]4(C)[C@@H](OC(C)=O)CC[C@H]4[C@@H]3[C@@H](C)[C@]2(O)C1 = 104

Please give growth for each item listed below.
1. COC(=O)[C@@H](C)C[C@H](Cc1ccccc1)NC(=O)c1csc([C@@H](C[C@H](C(C)C)N(C)C(=O)[C@@H](NC(=O)[C@H]2CCCCN2C)c2ccc(F)cc2)OC(C)=O)n1
2. CCCC(C)C1(CC)C(=O)NC(=O)N(C)C1=O (centres undefined)
3. CCOC(=O)[C@@H](C)C[C@H](Cc1ccccc1)NC(=O)c1csc([C@@H](C[C@H](C(C)C)N(C)C(=O)[C@@H](NC(=O)[C@H]2CCCCN2C)C(C)(C)CC)OC(C)=O)n1
4. O=[N+]([O-])c1cc([N+](=O)[O-])c(Nn2c3ccccc3c3ccccc32)c([N+](=O)[O-])c1

[22.3, 103, 24.2, 2.34]

Please give growth for each item listed below.
1. CCCCCCCCCCCCCCCCCCOc1ccccc1COP(=O)(O)OOCC[N+](C)(C)C
2. C=CCn1cc(C=C2C(=O)N(C)C(=O)N(C)C2=O)c2ccccc21

16.2
88.3

Please give growth for each item listed below.
1. O=C1C2C(C(=O)[N]1[Hg][c]1ccccc1)C1(Cl)C(Cl)=C(Cl)C2(Cl)C1(Cl)Cl (centres undefined)
2. CC(C)COC(C[N+](=O)[O-])C(Cl)(Cl)Cl (centres undefined)
3. CN(C)CC(C(=O)Cc1ccccc1)c1ccccc1 (centres undefined)
4. CCn1nccc1NC(=O)C(=O)c1cn(Cc2ccc(F)cc2)c2cccc(OC)c12
5. Cc1c(NS(=O)(=O)c2ccccc2)ccc([N+](=O)[O-])c1Cl
6. CCN1C(=O)C(=C/C=C/c2ccccc2)C(=O)N(CC)C1=O
7. ClC1=C(Cl)C(Cl)(C2(Cl)C(Cl)=C(Cl)C(Cl)=C2Cl)C(Cl)=C1Cl

-55.3
98.8
1.13
97.3
92.8
74.5
-40.9

CC12CCC(O)CC1=CCC1C2CCC2(C)C(O)CCC12 (centres undefined) yielded growth of 116

###

System: RXF 393 renal
experimentNotes: NCI-60 one-dose screen, 48 h
setupConditions: 10 µM unless noted
Experimental: Cells are grown in 96 well plates and exposed to the test compound for 48 hours. Compounds are tested at a single concentration, which is 10^-5 M for most compounds. The reported endpoint is percent growth (GI% or GIPRCNT), where numbers from 0 - 100% represent growth inhibition, and numbers from -100% - 0 represent cell death. For example, a value of 40 represents 60% growth inhibition. A value of 0 means no net growth occurred over the course of the experiment. […]
Compounds without any hit were thinned out: in the full panel of roughly 83,000, 20% have a hit. Calls of active or inactive are those of the source. The calls were made as follows: active = growth percent below 10; inactive = the rest.
Thanks in advance; please answer with one of these: active, inactive

Recorded results for 5 compounds are shown here.
CC12CCC3C(CCC4=CC(=O)CCC43CF)C1CCC2=O (centres undefined) = inactive
CC1=C(O)[C@@](C)(CCCCC[C@H](C)CCCCc2ccc(O)cc2)OOC1=O = inactive
C[C@@]12CC[C@@H](O)C[C@@H]1CC[C@H]1[C@H]2CC[C@@]2(C)[C@H](c3ccc(=O)oc3)CC[C@@]12O = active
CCC(O)(CN)c1ccccc1 (centres undefined) = inactive
Nc1ccc2c(c1)Cc1cc(Br)ccc1-2 = inactive

// param item: Cc1ccccc1NC(=NCCCN1CC1)Nc1ccccc1C ; yields the recorded call
inactive

// param item: [Au+].[N-]=C=O.c1ccc(CN2[CH-]N(Cc3ccccc3)C(c3ccccc3)=C2c2ccccc2)cc1 ; yields the recorded call
inactive

// param item: CC[C@H](C)[C@H](NC(=O)c1cccn1C)C(=O)N(C)[C@H](C[C@@H](OC(C)=O)c1nc(C(=O)N[C@@H](Cc2ccccc2)C[C@H](C)C(=O)OC)cs1)C(C)C ; yields the recorded call
active

// param item: CC[C@@H]1[C@@H](C)O[C@@](O)([C@@H](C)[C@H](O)[C@H](C)[C@H]2OC(=O)/C=C/C=C/[C@H](C)[C@@H]([C@@H](C)[C@@H](O)[C@H](C)[C@@]3(O)C[C@@H](O[C@H]4C[C@@H](O)[C@H](O)C(C)O4)[C@H](CC)[C@@H](C)O3)OC(=O)/C=C/C=C/[C@@H]2C)C[C@H]1O[C@@H]1C[C@@H](O)[C@H](O)C(C)O1 (some centres undefined) ; yields the recorded call
active

###

System: SW-620 colon
experimentNotes: NCI-60 one-dose screen, 48 h
setupConditions: 10 µM unless noted
About 83,000 compounds went through this panel and 20% of them were active in at least one assay; those are over-represented in the sample as a whole. Calls of active or inactive are those of the source. The calls were made as follows: active = growth percent below 10; inactive = the rest.
Thanks in advance; please answer with one of these: active, inactive

Recorded results for 4 compounds are shown here.
CC1=C(O)[C@@](C)(CCCCC[C@H](C)CCCCc2ccc(O)cc2)OOC1=O = inactive
Clc1ccc(CSC(Cn2ccnc2)c2ccc(Cl)cc2Cl)cc1 (stereo not given) = inactive
CC1=C(CCCOC(=O)CN)C2=C(C)C3(CC3)[C@@](C)(O)C(=O)C2=C1 = inactive
O=C(Nc1ccc([As]=[As]c2ccc(NC(=O)c3ccccc3)cc2)cc1)c1ccccc1 (stereo not given) = active

Below: the item to evaluate.
// param item: COc1ccc(/C=C\c2cc(OC)c(OC)c(OC)c2)cc1OCC(=O)Nc1nc2ccc(OC(F)(F)F)cc2s1 ; yields the recorded call
inactive

###

System: NCI-H522 lung
experimentNotes: NCI-60 one-dose screen, 48 h
setupConditions: 10 µM unless noted
This is part of a sample that, as a whole, favours compounds with a hit. Of some 83,000 tested, about 20% had one in any assay. Activity calls are given as the source filed them. How the source made its calls: active means growth percent below 10; inactive means the rest.
Thanks in advance; please answer with one of these: T (active), F (inactive)

// param item: CCOC(=O)N1CC1 ; yields the recorded call
F

// param item: CCCCCCC(=O)NC1=C(N2CC2)C(=O)C(NC(=O)CCCCCC)=C(N2CC2)C1=O ; yields the recorded call
F

// param item: Fc1cccc(NCOOC2(OOCNc3cccc(F)c3)CCCCC2)c1 ; yields the recorded call
F

// param item: COC(=O)[C@H](Cc1ccccc1)NNC(=O)c1csc([C@@H](C[C@H](C(C)C)N(C)C(=O)[C@@H](NC(=O)[C@H]2CCCCN2C)C2CC2)OC(C)=O)n1 ; yields the recorded call
T

// param item: O=c1[nH]c2ccc([N+](=O)[O-])cc2c(=O)o1 ; yields the recorded call
F

// param item: COc1cccc2c1c(C(=O)c1ccco1)cn2Cc1ccc(F)cc1 ; yields the recorded call
F

// param item: C[C@]12CC[C@@H]3c4ccc(Oc5nc(N6CC6)nc(N6CC6)n5)cc4CC[C@H]3[C@@H]1CCC2=O ; yields the recorded call
F

// param item: C/C(=C\c1ccn(-c2ccc(N)c(F)c2)n1)[C@@H]1C[C@@H]2O[C@]2(C)CCC[C@H](C)[C@H](O)[C@@H](C)C(=O)C(C)(C)[C@@H](O)CC(=O)O1 ; yields the recorded call
F

// param item: Oc1ccc2c3c1OC1[C@@H](O)CC[C@@]4(O)[C@@H](C2)N(CC2CCC2)CC[C@]314 (some centres undefined) ; yields the recorded call
F

// param item: CCCCCC1(CCBr)C(=O)NC(=O)NC1=O ; yields the recorded call
F

// param item: Cc1ccc(C(=O)NCCCOc2ccc(N)cc2Cl)cc1S(=O)(=O)F ; yields the recorded call
F

// param item: O=C(Nc1ccc(Cl)cc1)Nc1nccs1 ; yields the recorded call
T

// param item: C/C(=C\c1ccn(-c2ccccc2N)n1)[C@@H]1C[C@@H]2O[C@]2(C)CCC[C@H](C)[C@H](O)[C@@H](C)C(=O)C(C)(C)[C@@H](O)CC(=O)O1 ; yields the recorded call
F

// param item: O=C(CCCCCCC(=O)Nc1ccc(N(CCCl)CCCl)cc1)NO ; yields the recorded call
F

// param item: CC[S][Hg][Cl] ; yields the recorded call
T

// param item: [Au+].[N-]=C=O.c1ccc(CN2[CH-]N(Cc3ccccc3)C(c3ccccc3)=C2c2ccccc2)cc1 ; yields the recorded call
T
